tested on: S. aureus SPO-19 (MRSA); experiment: MIC against MRSA alone or in combination with imipenem or compound X, agar dilution; format: cell-based, Staphylococcus aureus; conditions: Staphylococcus aureus, MRSA, compound alone, inoculum 10^5 CFU/spot
Experimental readout: MIC (µg/mL)
Give the value in µg/mL but do not write µg/mL after it.

Example cases with answers are listed next.
{"Smiles repr": "C[N+](C)(C/C=C/C1=C(C(=O)[O-])N2C(=O)[C@@H](NC(=O)CSc3ccc4ccccc4c3)[C@H]2SC1)CCCO", "Unit abbrev": "µg/mL", "MIC": 2}
{"Smiles repr": "O=C(CSc1ccc2ccccc2c1)N[C@@H]1C(=O)N2C(C(=O)[O-])=C(/C=C/C[N+]34CCN(CC3)CC4)CS[C@H]12", "Unit abbrev": "µg/mL", "MIC": 4}

Lookup: # query: MIC of entry O=C(CSc1ccc2ccccc2c1)N[C@@H]1C(=O)N2C(C(=O)[O-])=C(/C=C/C[n+]3ccccc3)CS[C@H]12
Found: 4
